Tested on: MDA-MB-435
Assay: NCI tumour cell line growth inhibition, 48 h
Active and inactive are the calls of the source. Cut-off read from the data, not from the text of the source: active = GI50 up to about 1.1 µM and inactive = higher.

{"compound": "COc1ccc(S(=O)(=O)O)cc1NS(=O)(=O)c1ccc(C)cc1", "target-entity": "MDA-MB-435", "GI50": "> 100 µM (inactive)"}
{"compound": "C[C@]12OC(=O)[C@]3(O)CC[C@H]4[C@@H](C[C@@H](O)[C@@]5(Cl)CC=CC(=O)[C@]45C)[C@]45OCC6C(=O)O[C@@H]1C[C@@]6(C)[C@H](C4=O)[C@@]32O5 (stereo not given in full)", "target-entity": "MDA-MB-435", "GI50": "2 µM (inactive)"}
{"compound": "c1ccc(CNc2ncnc3nn[nH]c23)cc1", "target-entity": "MDA-MB-435", "GI50": "> 100 µM (inactive)"}
{"compound": "COC(=O)[C@@H]1c2c(oc3cc(CO)cc(O)c3c2=O)C=C[C@H]1O", "target-entity": "MDA-MB-435", "GI50": "4.15 µM (inactive)"}
{"compound": "COC(=O)C1=C(OC(=O)/C(=C/c2ccccc2)c2ccc(Cl)cc2)C(C(=O)OC)[C@@]2(O)[C@@H](C(=O)OC)[C@H](C)C[C@@H]1[C@@H]2C(=O)OC (stereo not given in full)", "target-entity": "MDA-MB-435", "GI50": "> 100 µM (inactive)"}
{"compound": "Clc1ccc(-c2ccc(-c3nn4c(CNc5ccccc5)nnc4s3)o2)c(Cl)c1", "target-entity": "MDA-MB-435", "GI50": "58.1 µM (inactive)"}
{"compound": "Brc1cccc(/N=N/N2CCCC2)c1", "target-entity": "MDA-MB-435", "GI50": "> 100 µM (inactive)"}
{"compound": "CC12CCc3ccccc3C1=Nc1ccccc12 (stereo not given)", "target-entity": "MDA-MB-435", "GI50": "25.3 µM (inactive)"}
{"compound": "CC(=O)N1c2ccccc2C23CCN(C)CC4C(C)OCC(C4CC2=O)C13 (stereo not given)", "target-entity": "MDA-MB-435", "GI50": "> 100 µM (inactive)"}
{"compound": "CNC(=O)/C(C#N)=C(\\N)N1CCCC1", "target-entity": "MDA-MB-435", "GI50": "> 100 µM (inactive)"}
